Tested on: FMOC27 (patient-derived low-grade serous ovarian cancer cells)
Test: drug sensitivity score (DSS3, normalised partial AUC of % inhibition dose-response) (DSS (score)); higher = more sensitive (stronger inhibition of viability); extreme values may be limits of the assay
Settings: 72 h; library: FO5A; assay format: 2D, 384-well, CellTiter-Glo
MEASURED PROPERTY: drug sensitivity score
Write the number on its own, no unit after it.

Past entries and their recorded results:
NCC(=O)Nc1ccc(-n2nc(C(F)(F)F)cc2-c2ccc3c(ccc4ccccc43)c2)cc1 ... 0
C=CCN(/C=C1/C(=O)O[C@H](COC)[C@@]2(C)C1=C(O)C(=O)C1=C2[C@H](OC(C)=O)C[C@]2(C)C(=O)CC[C@@H]12)CC=C [Sonolisib] ... 0
Cc1cc(Nc2nc(N[C@@H](C)c3ncc(F)cn3)ncc2Cl)[nH]n1 [AZD1480] ... 0
C[C@]1(c2nc3c(C(N)=O)cccc3[nH]2)CCCN1 [Veliparib] ... 1.4
O=C(Nc1cccnc1)N1CCC(Cc2cccc(Oc3ccc(C(F)(F)F)cn3)c2)CC1 [PF-3845] ... 1.9
O=C(Nc1cnn2ccc(N3CCC[C@@H]3c3cc(F)ccc3F)nc12)N1CC[C@H](O)C1 [Larotrectinib] ... 0
Cc1ccc(=O)n(-c2ccccc2)c1 [Pirfenidone] ... 0
Cn1nnc2c(C(N)=O)ncn2c1=O [Temozolomide] ... 0

Reported drug sensitivity score of C[C@@H]1CN(CC(=O)Nc2ccc3c(c2)Cc2cccc(-c4cc(=O)cc(N5CCOCC5)o4)c2S3)C[C@H](C)O1 : 0

----------
System: FMOC24 (patient-derived high-grade serous ovarian cancer cells)
Assay: drug sensitivity score (DSS3, normalised partial AUC of % inhibition dose-response) (DSS (score)); higher = more sensitive (stronger inhibition of viability); extreme values may be limits of the assay
Settings: 72 h; library: FO5A; assay format: 2D, 384-well, CellTiter-Glo
MEASURED PROPERTY: drug sensitivity score
Write the number on its own, no unit after it.

Past entries and their recorded results:
C[C@@H]1COCCN1c1cc(C2([S@](C)(=N)=O)CC2)nc(-c2cc[nH]c3nccc2-3)n1 ... 8
C[C@]1(c2nc3c(C(N)=O)cccc3[nH]2)CCCN1 ... 1.3
CN(C)C1CCN(C(=O)c2ccc(NC(=O)Nc3ccc(-c4nc(N5CCOCC5)nc(N5CCOCC5)n4)cc3)cc2)CC1 ... 9.05
COC(=O)C[C@](O)(CCCC(C)(C)O)C(=O)O[C@@H]1C(OC)=C[C@]23CCCN2CCc2cc4c(cc2[C@H]13)OCO4 ... 23.6
CNc1nc(-c2ccc3c(N)n[nH]c3c2)cc(N2C[C@@H](C(=O)NC3CCCCC3)CC[C@H]2C)n1 ... 0
CCNC(=O)CCC/C=C\C[C@@H]1[C@@H](/C=C/[C@@H](O)CCc2ccccc2)[C@H](O)C[C@@H]1O ... 0
N.N.[Cl][Pt][Cl] [Cisplatin] ... 18.6
CC/C(=C(\c1ccc(O)cc1)c1ccc(OCCN(C)C)cc1)c1ccccc1 [4-hydroxytamoxifen] ... 7.3

Reported drug sensitivity score of CC[C@]12C=CCN3CC[C@@]4(c5cc([C@@]6(C(=O)OC)C[C@@H]7C[C@@H](C(C)(F)F)CN(Cc8c6[nH]c6ccccc86)C7)c(OC)cc5N(C)[C@H]4[C@@](O)(C(=O)OC)[C@@H]1OC(C)=O)[C@@H]32 : 0

----------
System: FMOC09 (patient-derived high-grade serous ovarian cancer cells)
Experiment: drug sensitivity score (DSS3, normalised partial AUC of % inhibition dose-response) (DSS (score)); higher = more sensitive (stronger inhibition of viability); extreme values may be limits of the assay
Settings: 72 h; library: FO5A; assay format: 2D, 384-well, CellTiter-Glo
MEASURED PROPERTY: drug sensitivity score
Write the number on its own, no unit after it.

Reported drug sensitivity score of Nc1cc(F)ccc1NC(=O)/C=C/c1cnn(C/C=C/c2ccccc2)c1 : 0

----------
Test system: FMOC14 (patient-derived high-grade serous ovarian cancer cells)
Experiment: drug sensitivity score (DSS3, normalised partial AUC of % inhibition dose-response) (DSS (score)); higher = more sensitive (stronger inhibition of viability); extreme values may be limits of the assay
Details: 72 h; library: FO5A; assay format: 2D, 384-well, CellTiter-Glo
drug sensitivity score values by entry

COc1cc(C(=O)O)ccc1NC(=O)[C@@H]1N[C@@H](CC(C)(C)C)[C@](C#N)(c2ccc(Cl)cc2F)[C@H]1c1cccc(Cl)c1F [Idasanutlin] ... 2.5
C=CC(=O)N1CC/C(=C\c2ccc(F)c([N+](=O)[O-])c2)C(=O)/C(=C/c2ccc(F)c([N+](=O)[O-])c2)C1 [VLX1570] ... 14.8
Cc1cnc(NC(=O)Nc2cc(Br)c(C)cc2OC[C@@H]2CNCCO2)cn1 [Rabusertib] ... 3.8
Cc1[nH]nc(C(F)(F)F)c1Cc1sc2c(c1C(=O)N1C[C@](C)(O)CO1)c(=O)n(C)c(=O)n2C(C)C [AZD3965] ... 0
COc1cc(OC)cc(N(CCNC(C)C)c2ccc3ncc(-c4cnn(C)c4)nc3c2)c1 [Erdafitinib] ... 0
CC1=C2C[C@H]3[C@@H](CC[C@@H]4C[C@H](NS(C)(=O)=O)CC[C@@]43C)[C@@H]2CC[C@@]2(C1)O[C@@H]1C[C@H](C)CN[C@H]1[C@H]2C [Saridegib] ... 0
CC(=O)c1c(C)c2cnc(Nc3ccc(N4CCNCC4)cn3)nc2n(C2CCCC2)c1=O [Palbociclib] ... 1.6
CO[C@@H](C)Cn1c(=O)n(C)c2cnc3ccc(-c4cncc(C(C)(C)O)c4)cc3c21 ... 8.3
O=C(Nc1cccc(NC(=O)c2cccc(O)c2O)c1)c1cccc(O)c1O [MST-312] ... 8.2
S=C(NCc1ccc2c(c1)OCO2)N1CCN(c2ncnc3c2oc2ccccc23)CC1 [Amuvatinib] ... 2

Reported drug sensitivity score of Cc1cc(Nc2nc(N[C@@H](C)c3ncc(F)cn3)ncc2Cl)[nH]n1 [AZD1480] : 0

Reported drug sensitivity score of Nc1ccccc1NC(=O)c1ccc(CNc2nccc(-c3cccnc3)n2)cc1 [Mocetinostat] : 10.1

Reported drug sensitivity score of CCN(CC)CCNC(=O)c1c(C)[nH]c(/C=C2\C(=O)Nc3ccc(-c4csc(-c5ccccc5)n4)cc32)c1C [Amcasertib] : 0.1

Reported drug sensitivity score of CCN(c1cc(-c2ccc(CN3CCOCC3)cc2)cc(C(=O)NCc2c(C)cc(C)[nH]c2=O)c1C)C1CCOCC1 [Tazemetostat] : 0

Reported drug sensitivity score of C[C@@H]1CCN(C(=O)CC#N)C[C@@H]1N(C)c1ncnc2[nH]ccc12 [Tofacitinib] : 0

----------
drug sensitivity score values by entry
System: FMOC28 (patient-derived low-grade serous ovarian cancer cells)
Assay: drug sensitivity score (DSS3, normalised partial AUC of % inhibition dose-response) (DSS (score)); higher = more sensitive (stronger inhibition of viability); extreme values may be limits of the assay
Conditions: 72 h; library: FO5A; assay format: 2D, 384-well, CellTiter-Glo

CC[C@]12C=CCN3CC[C@@]4(c5cc([C@@]6(C(=O)OC)C[C@@H]7C[C@@H](C(C)(F)F)CN(Cc8c6[nH]c6ccccc86)C7)c(OC)cc5N(C)[C@H]4[C@@](O)(C(=O)OC)[C@@H]1OC(C)=O)[C@@H]32 ... 1.3
CC[C@H](CO)Nc1nc(NCc2ccccc2)c2ncn(C(C)C)c2n1 ... 1.2
Nc1cccc2c1C(=O)N(C1CCC(=O)NC1=O)C2=O (stereo unspecified) [Pomalidomide] ... 0
COCCNCc1ccc(-c2cc3nccc(Oc4ccc(NC(=S)NC(=O)Cc5ccc(F)cc5)cc4F)c3s2)nc1 ... 2.9
O=C(Nc1cnn2ccc(N3CCC[C@@H]3c3cc(F)ccc3F)nc12)N1CC[C@H](O)C1 ... 0

Reported drug sensitivity score of NC(=O)c1cccc(-c2cccc(OC(=O)NC3CCCCC3)c2)c1 : 0

Reported drug sensitivity score of COCCNCc1ccc(-c2cc3nccc(Oc4ccc(NC(=O)C5(C(=O)Nc6ccc(F)cc6)CC5)cc4F)c3s2)nc1 : 1.5

Reported drug sensitivity score of Cc1ccc(-c2cc(C(F)(F)F)nn2-c2ccc(S(N)(=O)=O)cc2)cc1 : 0.3

Reported drug sensitivity score of COc1cc2c(Oc3ccc(NC(=O)C4(C(=O)Nc5ccc(F)cc5)CC4)cc3F)ccnc2cc1OCCCN1CCOCC1 : 0

----------
drug sensitivity score values by entry
System: FMOC25_1 (patient-derived low-grade serous ovarian cancer cells)
Assay: drug sensitivity score (DSS3, normalised partial AUC of % inhibition dose-response) (DSS (score)); higher = more sensitive (stronger inhibition of viability); extreme values may be limits of the assay
Settings: 72 h; library: FO4B; assay format: 2D, 384-well, CellTiter-Glo
Write the number on its own, no unit after it.

CCCCC/C=C/C=C1/C(=O)C=C[C@@H]1C/C=C\CCCC(=O)O [15D-PGJ2] ... 0
C[C@@H]1C[C@H]2[C@@H]3CCC4=CC(=O)C=C[C@]4(C)[C@@]3(F)[C@@H](O)C[C@]2(C)[C@@]1(O)C(=O)CO [Dexamethasone] ... 0
COc1cccc2c1C(=O)c1c(O)c3c(c(O)c1C2=O)C[C@@](O)(/C(CO)=N/NC(=O)CCCCCN1C(=O)C=CC1=O)C[C@@H]3O[C@H]1C[C@H](N)[C@H](O)[C@H](C)O1 [Aldoxorubicin] ... 5.3
Cc1cc(Nc2cc(N3CCN(C)CC3)nc(Sc3ccc(NC(=O)C4CC4)cc3)n2)n[nH]1 [Tozasertib] ... 2.6
Cc1nc(NC(=O)N2CCC[C@H]2C(N)=O)sc1-c1ccnc(C(C)(C)C(F)(F)F)c1 [Alpelisib] ... 4.7
COCC[n+]1c2c(n(Cc3cnccn3)c1C)C(=O)c1ccccc1C2=O [YM155] ... 35.5

Moving on to the next compound.
Reported drug sensitivity score of O=[N+]([O-])c1ccc2c(c1)S(=O)(=O)C=C2 [Stattic] : 6.3
